assayMethodText: xn = mol fraction of the nth substance listed, in the solute-free solvent
conditionsUsed: 278.15 K; x2 = 0.7297
quantityMeasured: solubility (g/100 g solution)
No unit in the answer, please; the number alone is enough.

Guide cases for solubility (g/100 g solution), answers given:
compound	quantityMeasured	val
Nc1cccc2ccncc12 + CC(C)O + O	solubility (g/100 g solution)	0.576
CN1CCC(N(Cc2cccs2)c2ccccc2)CC1 + CCCO + O	solubility (g/100 g solution)	2.09
Cc1ccc2cc(Br)ccc2n1 + CC(C)O + O	solubility (g/100 g solution)	0.657
Nc1cccc2ccncc12 + CCCO + O	solubility (g/100 g solution)	0.791

Field solubility (g/100 g solution) (entry CN1CCC(N(Cc2cccs2)c2ccccc2)CC1 + CC(C)O + O ) reads 1.61

* * *

# solubility (g/100 g solution) annotations
assayMethodText: xn = mol fraction of the nth substance listed, in the solute-free solvent
conditionsUsed: 283.15 K; x2 = 0.5454
No unit in the answer, please; the number alone is enough.

Guide cases for solubility (g/100 g solution), answers given:
compound	solubility (g/100 g solution)
CN1CCC(N(Cc2cccs2)c2ccccc2)CC1 + CCCO + O	2.13
Cc1ccc2cc(Br)ccc2n1 + CC(C)O + O	0.7
Nc1cccc2ccncc12 + CCCO + O	0.916
CN1CCC(N(Cc2cccs2)c2ccccc2)CC1 + CC(C)O + O	1.68

Could you now consider this next compound?
Field solubility (g/100 g solution) (entry Nc1cccc2ccncc12 + CC(C)O + O ) reads 0.765

* * *

assayMethodText: xn = mol fraction of the nth substance listed, in the solute-free solvent
conditionsUsed: 288.15 K; x2 = 0.03225
quantityMeasured: solubility (g/100 g solution)
No unit in the answer, please; the number alone is enough.

Guide cases for solubility (g/100 g solution), answers given:
compound	solubility (g/100 g solution)
Cc1ccc2cc(Br)ccc2n1 + CC(C)O + O	0.0644
Nc1cccc2ccncc12 + CC(C)O + O	0.0925
CN1CCC(N(Cc2cccs2)c2ccccc2)CC1 + CC(C)O + O	0.16
CN1CCC(N(Cc2cccs2)c2ccccc2)CC1 + CCCO + O	0.187

Could you now consider this next compound?
Field solubility (g/100 g solution) (entry Nc1cccc2ccncc12 + CCCO + O ) reads 0.106

* * *

# solubility (g/100 g solution) annotations
assayMethodText: xn = mol fraction of the nth substance listed, in the solute-free solvent
conditionsUsed: 308.15 K; x2 = 0.3103
No unit in the answer, please; the number alone is enough.

Guide cases for solubility (g/100 g solution), answers given:
molecule	solubility (g/100 g solution)
Nc1cccc2ccncc12 + CCCO + O	1.55
CN1CCC(N(Cc2cccs2)c2ccccc2)CC1 + CC(C)O + O	1.96
Nc1cccc2ccncc12 + CC(C)O + O	1.26
Cc1ccc2cc(Br)ccc2n1 + CC(C)O + O	1.19

Could you now consider this next molecule?
Field solubility (g/100 g solution) (entry CN1CCC(N(Cc2cccs2)c2ccccc2)CC1 + CCCO + O ) reads 2.48

* * *

# solubility (g/100 g solution) annotations
assayMethodText: xn = mol fraction of the nth substance listed, in the solute-free solvent
conditionsUsed: 303.15 K; x2 = 0.7297
No unit in the answer, please; the number alone is enough.

Guide cases for solubility (g/100 g solution), answers given:
compound	solubility (g/100 g solution)
Cc1ccc2cc(Br)ccc2n1 + CC(C)O + O	1.56
Nc1cccc2ccncc12 + CCCO + O	1.92
Nc1cccc2ccncc12 + CC(C)O + O	1.58

Field solubility (g/100 g solution) (entry CN1CCC(N(Cc2cccs2)c2ccccc2)CC1 + CCCO + O ) reads 3.26

Field solubility (g/100 g solution) (entry CN1CCC(N(Cc2cccs2)c2ccccc2)CC1 + CC(C)O + O ) reads 2.6
